- Test system: EKVX
- Assay comment: Antiproliferative activity against human EKVX cells assessed as growth inhibition after 48 hrs by sulforhodamine B assay
- Assay type: functional
- Experimental setup: read-out: LC50 (the source's name)
CC50 overview
Record the value in µM, omitting the unit from your answer.

// fetch CC50 given entry CNC(=O)c1cc(Oc2ccc(NC(=O)Nc3ccc(Cl)c(C(F)(F)F)c3)cc2)ccn1
63.1

// fetch CC50 given entry CNC(=O)c1cc(Oc2ccc3nc(NC(=O)Nc4cc(C(F)(F)F)cc(C(F)(F)F)c4)sc3c2)ccn1
59.3

---

- Assay comment: Antiproliferative activity against human TK10 cells assessed as growth inhibition after 48 hrs by sulforhodamine B assay
- Format: functional
- Experimental setup: TK-10, 48 h, read-out: LC50 (the source's name)
Quantity measured: CC50

// fetch CC50 given entry CNC(=O)c1cc(Oc2ccc3nc(NC(=O)c4cc(C(F)(F)F)cc(C(F)(F)F)c4)sc3c2)ccn1
74.9 µM

// fetch CC50 given entry CNC(=O)c1cc(Oc2ccc3nc(NC(=O)Nc4cc(C(F)(F)F)cc(C(F)(F)F)c4)sc3c2)ccn1
6.72 µM

// fetch CC50 given entry CNC(=O)c1cc(Oc2ccc3nc(NC(=O)Nc4ccc(Cl)c(C(F)(F)F)c4)sc3c2)ccn1
9.32 µM

More entries:
// fetch CC50 given entry CNC(=O)c1cc(Oc2ccc(NC(=O)Nc3ccc(Cl)c(C(F)(F)F)c3)cc2)ccn1
50.1 µM

// fetch CC50 given entry CNC(=O)c1cc(Oc2ccc3nc(NC(=O)Nc4ccc(Cl)c(Cl)c4)sc3c2)ccn1
> 100 µM

Source of measurements: ChEMBL document CHEMBL3797052
